The measured values listed here are drawn from ChEMBL document CHEMBL1151493.

system: CCD 19Lu; test: Tested for the cytostatic activity as inhibitory concentration against CCD-19Lu (human normal pulmonary) cells; format: functional, cell-based; conditions: Homo sapiens, CCD 19Lu; read-out: IC50
Item-by-item account of IC50
Report as a plain number; the unit µg/mL is understood.

The compound CC(=O)O[C@H]1C(=O)[C@@]2(C)[C@H]([C@H](OC(=O)c3ccccc3)[C@]3(O)C[C@H](OC(=O)[C@H](O)[C@@H](NC(=O)c4ccccc4)c4ccccc4)C(C)=C1C3(C)C)[C@]1(OC(C)=O)CO[C@@H]1C[C@@H]2O [PACLITAXEL] showed IC50 equal to 2

Just so you know, measured IC50 for CO[C@@]12[C@H](COC(N)=O)C3=C(C(=O)C(C)=C(N)C3=O)N1C[C@@H]1N[C@@H]12 [MITOMYCIN] came out at 2

Short answer for CC[C@@]1(O)C(=O)OCc2c1cc1n(c2=O)Cc2cc3ccccc3nc2-1 [CAMPTOTHECIN] : IC50 was 2

Record COc1cccc2c1C(=O)c1c(O)c3c(c(O)c1C2=O)C[C@@](O)(C(=O)CO)C[C@@H]3O[C@H]1C[C@H](N)[C@H](O)[C@H](C)O1 [DOXORUBICIN] , field IC50: 2

In plain terms, COc1ccc(C(=O)O[C@@H]2[C@H](O[C@H]3[C@@H](OC(C)=O)[C@H](O[C@H]4C[C@H]5[C@@H]6CC=C7C[C@@H](O)CC[C@]7(C)[C@H]6CC[C@]5(C)[C@@]4(O)[C@H](C)C(=O)CCC(C)C)OC[C@@H]3O)OC[C@@H](O)[C@@H]2O)cc1 has a documented IC50 of 1.5
